Molecular target: T1, PUF4 RNA-binding domain (Saccharomyces cerevisiae, UniProt P25339 537-888)
T1 sequence: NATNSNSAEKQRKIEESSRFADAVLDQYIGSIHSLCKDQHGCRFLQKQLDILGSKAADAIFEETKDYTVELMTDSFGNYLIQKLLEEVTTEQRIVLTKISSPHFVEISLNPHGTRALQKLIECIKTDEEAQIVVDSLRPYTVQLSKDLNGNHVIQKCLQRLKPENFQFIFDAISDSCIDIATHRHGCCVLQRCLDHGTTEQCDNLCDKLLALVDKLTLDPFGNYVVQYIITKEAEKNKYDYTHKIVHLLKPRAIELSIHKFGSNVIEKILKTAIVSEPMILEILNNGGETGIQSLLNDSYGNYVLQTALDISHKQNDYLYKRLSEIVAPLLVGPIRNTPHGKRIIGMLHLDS
Experiment: Mg; RNA-MaP; 20 mM Na-HEPES pH 7.4, 30 mM KOAc, 0.75 mM MgCl2, 0.1% Tween-20, 5% glycerol, 0.1 mg/mL BSA, 2 mM DTT; 25 C; 0.0125-409.6 nM protein
Conditions: tags: N-His6-TEV cleaved; C-SNAP kept, Cy3B-labelled; label: tethered on chip by stalled RNA polymerase
I'd appreciate it if you could supply pKd values for the items below.
Please express pKd as -log10 of the molar concentration.

stdin: Request the reported pKd associated with Ib_S4_P5E.1_K5.1_C5.1_H5.1_[G2A]_[A4T]_A5.1_F5.1_T5.1 (ssRNA) RNA: UUUGACAACUGAUCGUUCUUUCUUAUUUUAUUAUUCUUUCUCGAUCAGUUGUCUUU
stdout: 5.84

stdin: Let us now turn to UCUCUUUGUAGUGUGUCUCUU (ssRNA) [Ic_S1_P4E.1_K4.1_C4.1_H4.1_A4.1_[T5G]_[A6T]_[T7G]_F4.1_[A9G]_T4.1]
stdout: 6.24

stdin: What do you get for UCUCUUGUACACUUAUUAUAUCUCUU (ssRNA) [Id_ii_S1_P5E.4_K5.3_C5.2_[C-2G]_H5.3_A5.1_F5.1_T5.2] ?
stdout: 8.41

stdin: Similarly, UCUCUUUGUACUUGUCUCUU (ssRNA) [Ic_S1_P3E.1_K3.1_C3.1_H3.1_A3.1_[T5C]_[A6T]_F3.1_[A8G]_T3.1] ?
stdout: 6.95

stdin: Another: UCUCUUUGCAUUUUAUCUCUU (ssRNA) [Ib_S1_P4E.1_K4.1_C4.1_H4.1_[T3C]_A4.1_[A6T]_F4.1_T4.1]
stdout: 5.79

stdin: Param item: Ic_S2_P5E.1_K5.1_C5.1_H5.1_A5.1_[A7T]_F5.1_[T8C]_[T9G]_[A10T]_T5.1 (ssRNA) RNA: UUUGAUUAAUAUGAUAUCGUUCUUUCUUGUAUUUCGUUUCUUUCUCGAUAUCAUAUUAAUCUUU
stdout: 7.06

stdin: Continue with UCUCUUUGUAUGACUUCUCUU (ssRNA) [Ic_S1_P4E.1_K4.1_C4.1_H4.1_A4.1_[A6G]_[T7A]_F4.1_[T8C]_[A9T]_T4.1]
stdout: 6.09

stdin: Quick one: ACAAACCUUAUAUUAUUAGCACAAAC (ssRNA) [Id_ii_S3_P5E.3_K5.2_C5.2_H5.2_A5.1_F5.1_T5.2_[T11G]_[A12C]]
stdout: 7.23

stdin: Also Ie_S2_P4E.1_K4.1_C4.1_H4.1_A4.1_F4.1_[+8CTCT]_T4.1 (ssRNA) RNA: UUUGAUUAAUAUGAUAUCGUUCUUUCUUGUAUAUUCUCUAUUCUUUCUCGAUAUCAUAUUAAUCUUU ?
stdout: 8.32

Reference for the values: paper PMC9352680
